System: PPARg:RXRa (NR concentration 180 nM, RXRa partner concentration 90 nM)
Assay: PBM binding z-score (relative to random genomic background probes); higher = stronger binding; sequences stand for … in GC…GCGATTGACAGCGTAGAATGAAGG
Class field: derived from PBM binding z-score; ranges low end: < 1; middle: ≥ 1 and < 4; high end: ≥ 4

[[record]]
monomer_sequence = "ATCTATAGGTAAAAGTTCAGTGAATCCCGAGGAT"
class_name = "high end"

[[record]]
monomer_sequence = "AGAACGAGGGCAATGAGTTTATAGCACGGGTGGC"
class_name = "middle"

[[record]]
monomer_sequence = "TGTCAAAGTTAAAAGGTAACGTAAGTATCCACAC"
class_name = "middle"

[[record]]
monomer_sequence = "CCTGCTAGGTGAATGGTCAGCTAAAGCAGCTCGC"
class_name = "middle"

[[record]]
monomer_sequence = "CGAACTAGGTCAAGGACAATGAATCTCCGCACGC"
class_name = "high end"

[[record]]
monomer_sequence = "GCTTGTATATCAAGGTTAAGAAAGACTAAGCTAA"
class_name = "low end"

[[record]]
monomer_sequence = "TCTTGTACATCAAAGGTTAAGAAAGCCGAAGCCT"
class_name = "middle"

[[record]]
monomer_sequence = "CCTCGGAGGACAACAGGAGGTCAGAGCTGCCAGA"
class_name = "low end"

[[record]]
monomer_sequence = "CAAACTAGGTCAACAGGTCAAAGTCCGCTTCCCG"
class_name = "high end"

[[record]]
monomer_sequence = "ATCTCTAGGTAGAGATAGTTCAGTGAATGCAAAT"
class_name = "low end"


* * *

System: PPARg:RXRa 30nM:10nM, anti-RXR (NR concentration 30 nM, RXRa partner concentration 10 nM)
Test: PBM binding z-score (relative to random genomic background probes); higher = stronger binding; sequences stand for … in GC…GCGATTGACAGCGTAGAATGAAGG
Reported PBM binding z-score values for the following sequences.
Property label: PBM binding z-score

[[record]]
monomer_sequence = "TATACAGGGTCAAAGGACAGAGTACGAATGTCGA"
test_system = "PPARg:RXRa 30nM:10nM, anti-RXR (NR concentration 30 nM, RXRa partner concentration 10 nM)"
quantitative_result = 4.83

[[record]]
monomer_sequence = "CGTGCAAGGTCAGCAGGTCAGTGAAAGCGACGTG"
test_system = "PPARg:RXRa 30nM:10nM, anti-RXR (NR concentration 30 nM, RXRa partner concentration 10 nM)"
quantitative_result = 1.7

[[record]]
monomer_sequence = "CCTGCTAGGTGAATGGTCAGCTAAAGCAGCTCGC"
test_system = "PPARg:RXRa 30nM:10nM, anti-RXR (NR concentration 30 nM, RXRa partner concentration 10 nM)"
quantitative_result = 2.1

[[record]]
monomer_sequence = "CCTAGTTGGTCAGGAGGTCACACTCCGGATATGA"
test_system = "PPARg:RXRa 30nM:10nM, anti-RXR (NR concentration 30 nM, RXRa partner concentration 10 nM)"
quantitative_result = 1.65

[[record]]
monomer_sequence = "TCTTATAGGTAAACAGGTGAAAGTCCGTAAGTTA"
test_system = "PPARg:RXRa 30nM:10nM, anti-RXR (NR concentration 30 nM, RXRa partner concentration 10 nM)"
quantitative_result = 4.06

[[record]]
monomer_sequence = "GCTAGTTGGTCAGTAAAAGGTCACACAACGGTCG"
test_system = "PPARg:RXRa 30nM:10nM, anti-RXR (NR concentration 30 nM, RXRa partner concentration 10 nM)"
quantitative_result = 2.61

[[record]]
monomer_sequence = "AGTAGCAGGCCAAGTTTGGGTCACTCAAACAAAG"
test_system = "PPARg:RXRa 30nM:10nM, anti-RXR (NR concentration 30 nM, RXRa partner concentration 10 nM)"
quantitative_result = -0.474

[[record]]
monomer_sequence = "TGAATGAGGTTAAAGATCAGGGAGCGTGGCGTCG"
test_system = "PPARg:RXRa 30nM:10nM, anti-RXR (NR concentration 30 nM, RXRa partner concentration 10 nM)"
quantitative_result = 5.47

[[record]]
monomer_sequence = "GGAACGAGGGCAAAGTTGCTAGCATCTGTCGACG"
test_system = "PPARg:RXRa 30nM:10nM, anti-RXR (NR concentration 30 nM, RXRa partner concentration 10 nM)"
quantitative_result = 2.76

[[record]]
monomer_sequence = "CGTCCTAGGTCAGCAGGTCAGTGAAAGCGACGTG"
test_system = "PPARg:RXRa 30nM:10nM, anti-RXR (NR concentration 30 nM, RXRa partner concentration 10 nM)"
quantitative_result = 0.151

[[record]]
monomer_sequence = "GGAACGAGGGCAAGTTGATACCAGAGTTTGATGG"
test_system = "PPARg:RXRa 30nM:10nM, anti-RXR (NR concentration 30 nM, RXRa partner concentration 10 nM)"
quantitative_result = 0.0746

[[record]]
monomer_sequence = "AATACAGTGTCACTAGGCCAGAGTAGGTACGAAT"
test_system = "PPARg:RXRa 30nM:10nM, anti-RXR (NR concentration 30 nM, RXRa partner concentration 10 nM)"
quantitative_result = 0.462

[[record]]
monomer_sequence = "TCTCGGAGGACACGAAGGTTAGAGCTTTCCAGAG"
test_system = "PPARg:RXRa 30nM:10nM, anti-RXR (NR concentration 30 nM, RXRa partner concentration 10 nM)"
quantitative_result = 2.15

[[record]]
monomer_sequence = "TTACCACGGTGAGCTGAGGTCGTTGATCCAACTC"
test_system = "PPARg:RXRa 30nM:10nM, anti-RXR (NR concentration 30 nM, RXRa partner concentration 10 nM)"
quantitative_result = -0.397

[[record]]
monomer_sequence = "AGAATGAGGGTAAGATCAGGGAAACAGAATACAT"
test_system = "PPARg:RXRa 30nM:10nM, anti-RXR (NR concentration 30 nM, RXRa partner concentration 10 nM)"
quantitative_result = 0.455

[[record]]
monomer_sequence = "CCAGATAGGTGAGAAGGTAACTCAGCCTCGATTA"
test_system = "PPARg:RXRa 30nM:10nM, anti-RXR (NR concentration 30 nM, RXRa partner concentration 10 nM)"
quantitative_result = 0.791

[[record]]
monomer_sequence = "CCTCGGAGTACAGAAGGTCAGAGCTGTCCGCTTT"
test_system = "PPARg:RXRa 30nM:10nM, anti-RXR (NR concentration 30 nM, RXRa partner concentration 10 nM)"
quantitative_result = -0.606

[[record]]
monomer_sequence = "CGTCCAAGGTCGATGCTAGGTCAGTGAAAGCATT"
test_system = "PPARg:RXRa 30nM:10nM, anti-RXR (NR concentration 30 nM, RXRa partner concentration 10 nM)"
quantitative_result = -0.65

[[record]]
monomer_sequence = "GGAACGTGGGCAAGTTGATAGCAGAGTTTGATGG"
test_system = "PPARg:RXRa 30nM:10nM, anti-RXR (NR concentration 30 nM, RXRa partner concentration 10 nM)"
quantitative_result = -0.337

[[record]]
monomer_sequence = "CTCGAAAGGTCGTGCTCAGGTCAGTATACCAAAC"
test_system = "PPARg:RXRa 30nM:10nM, anti-RXR (NR concentration 30 nM, RXRa partner concentration 10 nM)"
quantitative_result = 1.06

[[record]]
monomer_sequence = "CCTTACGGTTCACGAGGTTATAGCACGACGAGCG"
test_system = "PPARg:RXRa 30nM:10nM, anti-RXR (NR concentration 30 nM, RXRa partner concentration 10 nM)"
quantitative_result = 0.593

[[record]]
monomer_sequence = "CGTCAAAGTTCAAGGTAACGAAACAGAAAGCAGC"
test_system = "PPARg:RXRa 30nM:10nM, anti-RXR (NR concentration 30 nM, RXRa partner concentration 10 nM)"
quantitative_result = 2.22

[[record]]
monomer_sequence = "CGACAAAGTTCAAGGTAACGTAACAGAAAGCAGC"
test_system = "PPARg:RXRa 30nM:10nM, anti-RXR (NR concentration 30 nM, RXRa partner concentration 10 nM)"
quantitative_result = 1.47

[[record]]
monomer_sequence = "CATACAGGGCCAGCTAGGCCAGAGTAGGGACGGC"
test_system = "PPARg:RXRa 30nM:10nM, anti-RXR (NR concentration 30 nM, RXRa partner concentration 10 nM)"
quantitative_result = -0.392

[[record]]
monomer_sequence = "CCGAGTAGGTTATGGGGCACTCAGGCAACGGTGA"
test_system = "PPARg:RXRa 30nM:10nM, anti-RXR (NR concentration 30 nM, RXRa partner concentration 10 nM)"
quantitative_result = 2.45

[[record]]
monomer_sequence = "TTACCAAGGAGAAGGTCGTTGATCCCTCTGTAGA"
test_system = "PPARg:RXRa 30nM:10nM, anti-RXR (NR concentration 30 nM, RXRa partner concentration 10 nM)"
quantitative_result = 1.24


The measurements presented in this section are drawn from the supplement of paper PMC6555819.
